- Measured Target: T1, hGITR.mmh (human)
- T1 construct: soluble monomeric construct; also called human (h) GITR.mmh; monomeric human GITR
- T1 chain: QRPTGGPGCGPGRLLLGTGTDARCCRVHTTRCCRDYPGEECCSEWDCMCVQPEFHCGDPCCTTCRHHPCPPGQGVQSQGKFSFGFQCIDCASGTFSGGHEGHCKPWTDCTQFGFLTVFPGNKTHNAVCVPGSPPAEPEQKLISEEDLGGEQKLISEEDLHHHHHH
- Method Description: SPR 37C, mAb capture
binders and their reported kon
Express the result in M⁻¹ s⁻¹ but write the number alone.

Ask: Consider the binder H4H14475P (antibody, human IgG4, V domains shown, human IgG4 (H4H)) VH: QVQLVESGGGVVQPGRSLRLSCAASGTIFSTHGMHWVRQAPGKGLEWVAVISYDGNKKYYAGSVKGRFTISRDNSKNTLYLQMNDVRSEDTAVYHCTTDITGITDYWGQGTLVTVSS VL: DIQMTQSPSSLSASVGDRVTITCRASQGIGNDLGWYQQKLGKAPKRLIYAASSLESGVPSRFSGSGSGTEFILTISSLQAEDFATYYCLQHNGFPTFGQGTKVEIK and give its measured kon.
Result: 307000

Please examine the following record next.
Ask: Consider the binder H4H14508P (antibody, human IgG4, V domains shown, human IgG4 (H4H)) VH: QVQLVESGGGVVQPGRSLRLSCAASGLTVSSYVMHWVRQAPGKGLEWVAIIWYDGSNKYYGDSVKGRFTISRDNSKKTLYLQMNSLRAEDTAVYYCARGRPLSSSSSDYYGLDVWGQGTTVTVSS VL: AIQMTQSPSSLSASVGDRVTIICRASQGIRNDLGWYQQKPGKAPNLLIYAASSLQSGVPSRFSGSGSGTDFTLTISSLQPEDFATYYCLQDYNYPWTFGQGTKVEIK and give its measured kon.
Result: 255000
